System: AVEFA
Experiment: Pre-emergence herbicidal action against AVEFA
Type: in vivo, Avena fatua
Conditions: 320 g/ha, scored visually after 3 weeks vs untreated controls
Reported Pre-emergence action against AVEFA in % values are given for each entry in this list.
The response must be a number in % with no trailing unit.

For orientation, consider the following solved cases.
- CC#Cc1cc(Br)c(C2=C(O)C3(CCC(COCC)C3)NC2=O)c(OCC)c1 (centres unmarked) [Example I-63]: 100
- CC#Cc1cc(Br)c(C2=C(OC(=O)OCC)C3(CCC(COC)C3)NC2=O)c(OCC)c1 (centres unmarked) [Example P-90]: 100
- CC#Cc1cc(F)c(C2=C(OC(=O)C(C)C)C3(CCC(COC)C3)NC2=O)c(OC)c1 (centres unmarked) [Example P-65]: 100
- CC#Cc1cc(Br)c(C2=C(OC(=O)OCC)C3(CCC(COCC)C3)NC2=O)c(OCC)c1 (centres unmarked) [Example P-89]: 100
- CC#Cc1cc(C)c(C2=C(OC(=O)OCC)C3(CCC(COC)C3)NC2=O)c(F)c1 (centres unmarked) [Example P-52]: 90
- C=CCOCC1CCC2(C1)NC(=O)C(c1c(C)cc(C#CC)cc1Cl)=C2OC(=O)OCC (centres unmarked): 90

// query Pre-emergence action against AVEFA in % value for entry CC#Cc1cc(C)c(C2=C(OC(=O)OCC)C3(CCC(COCC)C3)NC2=O)c(Br)c1 (centres unmarked) [Example P-34]
100

// query Pre-emergence action against AVEFA in % value for entry C#CCOCC1CCC2(C1)NC(=O)C(c1c(C)cc(C#CC)cc1Cl)=C2OC(=O)OCC (centres unmarked) [Example P-99]
100
